Reference source: patent US6544989B2

# System: Venturia inaequalis
# EXPERIMENTAL_DETAILS: Fungicidal test, Venturia inaequalis (VENTIN) on apples, PRCO; also: test concentration or dose not given here
# Format: in vivo
# CONDITIONS_USED: METHOD 2 (unbanded)
Please provide measured VENTIN 1 d Prot/Foir PRCO for the entries that follow.

Query `Cc1nc2ccc(CC(=O)Nc3snc(C)c3Cl)cc2[nH]1` yields VENTIN 1 d Prot/Foir PRCO of 14

Recorded result, `Cc1nsc(NC(=O)Cc2ccc3oc(CC(C)C)nc3c2)c1Cl` , VENTIN 1 d Prot/Foir PRCO: 10

Given item CCCC(C)c1nc2cc(CC(=O)Nc3snc(C)c3Cl)ccc2o1 (centres unmarked) , the value recorded as its VENTIN 1 d Prot/Foir PRCO is 63

// sample `Cc1nsc(NC(=O)Cc2ccc3oc(C4CC4)nc3c2)c1Cl` , its VENTIN 1 d Prot/Foir PRCO was 50

Looking up `Cc1cc(NC(=O)Cc2ccc3oc(CC(C)(C)C)nc3c2)sn1` , I found its VENTIN 1 d Prot/Foir PRCO recorded as 54
